measured-on: HLA-DR DRB3*0101 (DR52) (Homo sapiens, UniProt P01903+P79483)
protocol-details: biochemical
Assay type: binding
Readings of IC50 for the listed compounds

substance-smiles | IC50
CC(C)C[C@H](NC(=O)[C@@H](NC(=O)[C@H](CCC(N)=O)NC(=O)[C@H](Cc1c[nH]c2ccccc12)NC(=O)[C@@H]1CCCN1C(=O)[C@H](CCC(N)=O)NC(=O)[C@@H](N)CO)C(C)C)C(=O)N[C@H](C(=O)N[C@@H](C)C(=O)N[C@@H](CO)C(=O)N[C@@H](CCCNC(=N)N)C(=O)NCC(=O)N[C@@H](CCCNC(=N)N)C(=O)N[C@@H](C)C(=O)N[C@H](C(=O)O)C(C)C)C(C)C | > 12.1 µM

Can you look up the measured IC50 of CC(C)C[C@H](NC(=O)[C@H](CO)NC(=O)[C@H](CC(C)C)NC(=O)[C@H](CO)NC(=O)[C@H](C)NC(=O)[C@H](C)NC(=O)[C@H](CCCNC(=N)N)NC(=O)[C@H](C)NC(=O)[C@H](CC(C)C)NC(=O)[C@H](CC(C)C)NC(=O)[C@H](CC(C)C)NC(=O)[C@@H]1CCCN1C(=O)[C@H](C)NC(=O)[C@H](C)N)C(=O)NCC(=O)O for me? 10.5 µM

Can you look up the measured IC50 of CC[C@H](C)[C@H](N)C(=O)N[C@@H](Cc1ccc(O)cc1)C(=O)N[C@@H](CO)C(=O)N[C@H](C(=O)N[C@@H](CO)C(=O)N[C@@H](CCSC)C(=O)N[C@@H](CCCCN)C(=O)N[C@@H](Cc1c[nH]cn1)C(=O)N1CCC[C@H]1C(=O)N[C@@H](CCC(N)=O)C(=O)N[C@@H](CCC(=O)O)C(=O)N[C@@H](CCSC)C(=O)N[C@@H](CCCCN)C(=O)N[C@H](C(=O)N[C@@H](Cc1ccc(O)cc1)C(=O)O)[C@@H](C)O)[C@@H](C)CC for me? > 21.9 µM

* * *

measured-on: HLA-DR DRB1*0101 (DR1) (Homo sapiens, UniProt P01903+P01911, A100R/D57E/F55L/F60I/F76Y/I96L/L162R/M171V/P40L/Q125E/R42F/V115G/Y59C)
protocol-details: biochemical
Format: binding
protocol-conditions: DRB1 *0101
No end group written: not given here.
Friendly reminder: IC50 below 700 nM is 1, at or above is 0.

Item FSYFPSI [FSYFPSI] : IC50 beneath 700 nM, strictly? 0

Item AADDDDDDDDDDA : IC50 beneath 700 nM, strictly? 0

Item HLDMLRHLYQGCQVV : IC50 beneath 700 nM, strictly? 1

* * *

measured-on: HLA-DR DRB1*1302 (DR13) (Homo sapiens, UniProt P01903+P01911, A100E/A169T/K41T/L162R/M171V/P40S/Q125H/Q178H/Q39Y/Q99D/R42S/S66N/T262R/V115G/W38E/Y61H)
Sequence (P01903 26-254 limits assumed, other chains not shown): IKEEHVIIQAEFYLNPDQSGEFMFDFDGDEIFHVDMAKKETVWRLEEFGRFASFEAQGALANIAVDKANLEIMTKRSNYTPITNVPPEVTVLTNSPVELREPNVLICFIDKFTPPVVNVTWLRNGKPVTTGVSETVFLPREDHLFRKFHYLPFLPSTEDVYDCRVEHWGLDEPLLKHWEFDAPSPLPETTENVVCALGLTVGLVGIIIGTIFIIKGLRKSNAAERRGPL
protocol-details: biochemical
Assay type: binding
protocol-conditions: DRBI *1302
Readings of IC50 for the listed compounds
Unit nM implied. Number only.

Known IC50 results, listed for orientation:
substance-smiles | IC50 [nM]
CC[C@H](C)[C@H](NC(=O)[C@H](Cc1ccccc1)NC(=O)[C@H](Cc1c[nH]c2ccccc12)NC(=O)CNC(=O)[C@H](Cc1ccccc1)NC(=O)[C@H](CC(C)C)NC(=O)[C@H](Cc1ccccc1)NC(=O)CNC(=O)[C@@H](N)CC(C)C)C(=O)N[C@@H](CCCCN)C(=O)N[C@@H](CO)C(=O)N[C@@H](CO)C(=O)N[C@@H](CC(N)=O)C(=O)N[C@@H](CCC(=O)O)C(=O)N[C@@H](C)C(=O)O | 10100
CC(C)C[C@H](NC(=O)[C@H](CO)NC(=O)[C@H](CC(C)C)NC(=O)[C@H](CO)NC(=O)[C@H](C)NC(=O)[C@H](C)NC(=O)[C@H](CCCNC(=N)N)NC(=O)[C@H](C)NC(=O)[C@H](CC(C)C)NC(=O)[C@H](CC(C)C)NC(=O)[C@H](CC(C)C)NC(=O)[C@@H]1CCCN1C(=O)[C@H](C)NC(=O)[C@H](C)N)C(=O)NCC(=O)O | 3.2

Please find the next compound below.
Can you look up the measured IC50 of CC[C@H](C)[C@H](NC(=O)CNC(=O)[C@H](CCC(N)=O)NC(=O)[C@H](CC(C)C)NC(=O)[C@@H](NC(=O)CNC(=O)[C@H](CC(N)=O)NC(=O)[C@H](CS)NC(=O)[C@@H](NC(=O)[C@H](CC(C)C)NC(=O)[C@@H]1CCCN1C(=O)CNC(=O)CN)C(C)C)C(C)C)C(=O)N[C@H](C(=O)N[C@@H](CO)C(=O)O)[C@@H](C)O for me? 36
